TEST SUMMARY: Drug uptake in ddY mouse brain at 30 mg/kg, po after 30 mins by LC-MS/MS analysis
Assay type: ADME, organism-based
Set-up: dose 30 mg/kg, route oral
STATED CONDITIONS: read-out: Drug uptake
MEASURE NAME: concentration at 0.5 h (ng/mL)
State just the number; it will be interpreted in ng/mL.

Incoming: Please look up its concentration at 0.5 h: `O=c1[nH]nc(CCc2cc(F)cc(F)c2)cc1O`
Outgoing: 460

* * *

Please go through the items and note down their pIC50.
MEASURED ON: D-amino-acid oxidase (Homo sapiens)
pIC50: −log10 of the molar value.

Incoming: Item `O=c1[nH]nc(/C=C/c2ccc(Cl)cc2)cc1O` has what recorded pIC50?
Outgoing: 6.24

Incoming: Next molecule up: `CC(C)(C)CCc1cc(O)c(=O)[nH]n1`
Outgoing: < 6.00

Incoming: Queued: `O=c1[nH]nc(C2CCCCC2)cc1O`
Outgoing: < 6.00

* * *

TEST SUMMARY: Plasma concentration in ddY mouse at 30 mg/kg, po after 30 mins by LC-MS/MS analysis
Format: ADME, organism-based
Design: dose 30 mg/kg, route oral
MEASURE NAME: concentration at 0.5 h (ng/mL)
Provide the reading as a plain figure in ng/mL.

Incoming: Endpoint output: concentration at 0.5 h of `O=c1[nH]nc(CCc2cc(F)cc(F)c2)cc1O` . Value?
Outgoing: 6540

* * *

TEST SUMMARY: Effective permeability of the compound at pH 6.5 after 2 hrs by PAMPA
Format: ADME
STATED CONDITIONS: read-out: Peff
Can you tell me Papp at 2 h for the items I'm about to list?
# unit: ×10⁻⁶ cm/s | format: bare number

Incoming: Param item = `O=C(O)c1cc2sccc2[nH]1` ; retrieve measured Papp at 2 h.
Outgoing: 0.8

Incoming: Same again, this time with `O=c1[nH]cc(Cl)cc1O`
Outgoing: 6.4

Incoming: Try `O=c1[nH]c2ccccc2cc1O` next.
Outgoing: 18.2

* * *

Notes on IC50 obtained with UniProtKB P18894.
Sequence (P18894 whole entry): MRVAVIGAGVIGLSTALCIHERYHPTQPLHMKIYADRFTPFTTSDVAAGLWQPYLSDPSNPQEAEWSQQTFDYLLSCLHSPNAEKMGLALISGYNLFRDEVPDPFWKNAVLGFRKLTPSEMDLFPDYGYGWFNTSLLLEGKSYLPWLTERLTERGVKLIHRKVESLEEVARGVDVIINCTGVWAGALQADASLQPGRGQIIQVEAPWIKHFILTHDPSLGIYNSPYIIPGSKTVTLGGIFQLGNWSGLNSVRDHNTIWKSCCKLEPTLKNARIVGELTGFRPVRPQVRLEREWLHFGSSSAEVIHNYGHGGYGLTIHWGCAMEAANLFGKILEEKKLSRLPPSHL

Incoming: Requested read-out: IC50. Entry: `COc1cccc(CCc2cc(O)c(=O)[nH]n2)c1`
Outgoing: 4.4 nM

Incoming: How about this molecule: `O=c1[nH]nc(CCC2CCCCC2)cc1O`
Outgoing: 3.2 nM

Incoming: Try this molecule too: `O=c1[nH]nc(C2CCCCC2)cc1O`
Outgoing: > 1000 nM

Incoming: Next molecule: `COc1ccc(CCc2cc(O)c(=O)[nH]n2)cc1`
Outgoing: 3.6 nM

Incoming: `O=c1[nH]nc(CCc2ccccc2F)cc1O` ?
Outgoing: 3.6 nM

Incoming: Another molecule to look at: `CC(C)(C)CCc1cc(O)c(=O)[nH]n1`
Outgoing: > 1000 nM

Incoming: Now the same for O=c1[nH]nc(CCc2ccc(C(F)(F)F)cc2)cc1O [LUVADAXISTAT]
Outgoing: 5.9 nM

Incoming: Moving on to the next molecule: `O=c1[nH]nc(CCc2ccccc2C(F)(F)F)cc1O`
Outgoing: 7.1 nM

Incoming: Next molecule up: `O=c1[nH]nc(CCc2cccc(F)c2)cc1O`
Outgoing: 1.9 nM

Incoming: Here is the next molecule: `O=c1[nH]nc(CCc2ccc(Cl)cc2)cc1O`
Outgoing: 1.9 nM

Incoming: Please answer likewise for `O=c1[nH]nc(/C=C/c2ccc(Cl)cc2)cc1O`
Outgoing: 240 nM

Incoming: Then what about the molecule `O=c1[nH]nc(CCc2ccccc2)cc1O` ?
Outgoing: 3.3 nM

* * *

MEASURED ON: UniProt O35078
Sequence (O35078 whole entry): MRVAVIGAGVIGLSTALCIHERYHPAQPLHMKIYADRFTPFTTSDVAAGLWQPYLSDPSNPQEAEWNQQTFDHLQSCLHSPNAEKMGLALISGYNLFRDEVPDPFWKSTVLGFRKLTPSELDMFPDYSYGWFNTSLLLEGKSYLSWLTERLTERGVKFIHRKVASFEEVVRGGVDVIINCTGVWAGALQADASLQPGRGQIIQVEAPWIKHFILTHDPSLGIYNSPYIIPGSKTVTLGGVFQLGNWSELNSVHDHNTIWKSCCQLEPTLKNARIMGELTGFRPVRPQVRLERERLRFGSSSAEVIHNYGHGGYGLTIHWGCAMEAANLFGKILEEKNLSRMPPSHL
MEASURE NAME: IC50 (nM)
The reply should contain only the number, in nM.

Incoming: Suppose we examine the compound `COc1cc(CCc2cc(O)c(=O)[nH]n2)cc(OC)c1` ; what IC50 value has been reported?
Outgoing: 19

Incoming: Let us now turn to `O=c1[nH]nc(CCc2ccc(Cl)cc2)cc1O`
Outgoing: 2.4

Incoming: Now give it for `O=c1[nH]nc(/C=C/c2ccc(Cl)cc2)cc1O` too.
Outgoing: 470

Incoming: Entry `O=c1[nH]nc(CCc2cc(F)cc(F)c2)cc1O` please
Outgoing: 16

Incoming: Here is the next compound: `O=c1[nH]nc(CCCc2ccccc2)cc1O`
Outgoing: 1220

Incoming: Here is the next compound: `O=c1[nH]nc(CCc2ccc(C(F)(F)F)cc2)cc1O`
Outgoing: 5

* * *

Hi there, I'd appreciate the recorded IC50 for every entry that follows.
MEASURED ON: D-amino-acid oxidase (Homo sapiens, UniProt P14920)
Sequence (P14920 whole entry): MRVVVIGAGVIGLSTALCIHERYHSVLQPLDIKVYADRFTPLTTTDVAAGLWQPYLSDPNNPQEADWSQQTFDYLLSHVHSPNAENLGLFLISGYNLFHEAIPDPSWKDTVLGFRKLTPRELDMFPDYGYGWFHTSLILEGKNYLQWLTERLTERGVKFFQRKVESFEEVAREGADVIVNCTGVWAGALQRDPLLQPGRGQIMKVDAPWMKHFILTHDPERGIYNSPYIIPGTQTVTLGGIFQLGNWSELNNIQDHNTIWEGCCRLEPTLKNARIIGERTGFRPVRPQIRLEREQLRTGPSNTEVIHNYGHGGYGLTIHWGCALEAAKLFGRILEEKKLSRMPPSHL
TEST SUMMARY: Inhibition of human recombinant DAAO after 30 mins by plate reader analysis

Incoming: # lookup: IC50 of `O=c1[nH]nc(/C=C/c2ccc(Cl)cc2)cc1O`
Outgoing: 120 nM

Incoming: Repeat for the following compound: `O=C(O)c1cc2sccc2[nH]1`
Outgoing: 1.4 nM

Incoming: # iterate: `CC(C)(C)CCc1cc(O)c(=O)[nH]n1`
Outgoing: 670 nM

Incoming: Consider next the compound `O=c1[nH]nc(C2CCCCC2)cc1O` in the same way.
Outgoing: 300 nM

Incoming: Another compound to check: `Cc1c[nH]c(=O)c(O)c1`
Outgoing: 140 nM

Incoming: Try the compound `Oc1cccnc1O`
Outgoing: 1150 nM

Incoming: Now give it for `O=c1[nH]cc(Cl)cc1O` too.
Outgoing: 47 nM
